- Target Entity: Histone acetyltransferase GCN5 (Saccharomyces cerevisiae S288c) (UniProt Q03330)
- Sequence (Q03330 whole entry): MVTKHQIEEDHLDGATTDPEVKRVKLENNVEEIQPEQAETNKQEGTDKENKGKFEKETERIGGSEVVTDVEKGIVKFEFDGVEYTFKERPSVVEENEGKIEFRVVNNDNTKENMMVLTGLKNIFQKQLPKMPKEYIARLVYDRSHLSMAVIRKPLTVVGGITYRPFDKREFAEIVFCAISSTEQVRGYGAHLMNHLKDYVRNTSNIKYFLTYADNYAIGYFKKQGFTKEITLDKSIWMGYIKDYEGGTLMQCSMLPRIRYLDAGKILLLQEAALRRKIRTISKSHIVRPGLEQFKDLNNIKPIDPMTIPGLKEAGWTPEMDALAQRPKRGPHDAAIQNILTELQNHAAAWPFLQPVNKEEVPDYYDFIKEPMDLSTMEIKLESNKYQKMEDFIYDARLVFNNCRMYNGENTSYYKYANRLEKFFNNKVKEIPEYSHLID
- Protocol Description: Inhibition of yeast histone acetyltransferase Gcn5-Ada2-Ada3 complex using tetramer and [3H]-acetyl-CoA assessed as acetate incorporation […] by liquid scintillation counting in presence of 1 mM DTT
Active and inactive are the calls of the source.
Labels: active, inactive

[[record]]
molecule = "O=S(=O)(Nc1cc(Cl)c(O)c2ccccc12)c1ccc(Br)cc1"
label_class = "active"

[[record]]
molecule = "O=C1CC(Sc2nnc(-c3ccccc3O)o2)C(=O)N1c1ccc(Br)cc1 (centres undefined)"
label_class = "active"

[[record]]
molecule = "O=S1(=O)C=C(Sc2nnc(-c3ccccc3)o2)c2ccccc21"
label_class = "active"

[[record]]
molecule = "O=C(O)CCSc1cc(NS(=O)(=O)c2ccc(Br)cc2)c2ccccc2c1O"
label_class = "active"

[[record]]
molecule = "C=C(C)[C@@H](CC=C(C)C)C[C@@]12C[C@@H](CC=C(C)C)C(C)(C)[C@@](CC=C(C)C)(C(=O)C(C(=O)c3ccc(O)c(O)c3)=C1O)C2=O"
label_class = "inactive"

[[record]]
molecule = "O=[N+]([O-])c1c(Sc2nnnn2-c2ccccc2)cc(Cl)c2nonc12"
label_class = "active"

[[record]]
molecule = "O=C(O)c1ccc(-n2nnnc2SC2=CS(=O)(=O)c3ccccc32)cc1"
label_class = "active"

[[record]]
molecule = "O=S(=O)(Nc1cc(Sc2nc[nH]n2)c(O)c2ccccc12)c1ccc(Br)cc1"
label_class = "active"

[[record]]
molecule = "CNc1nc(-c2ccccc2)[n+](-c2ccccc2)s1.[Cl-]"
label_class = "active"


###

- Protocol Description: Fluorescence quenching in HTS buffer with […] CoA assessed as fluorescence signal reduction at 10 uM after 10 mins
- Type: physicochemical
Observed Property: Activity

[[record]]
compound_smiles = "O=C1C=CC(=O)N1c1ccccc1"
recorded_value = "Not Active"

[[record]]
compound_smiles = "O=C1C=CC(=O)N1c1ccc2ccccc2c1"
recorded_value = "Not Active"

[[record]]
compound_smiles = "CC(C)c1ccc(S(=O)(=O)Nc2cc(Sc3nc[nH]n3)c(O)c3ccccc23)cc1"
recorded_value = "Not Active"

[[record]]
compound_smiles = "Cn1c(CN2CCOCC2)nnc1Sc1ccc([N+](=O)[O-])c2nonc12"
recorded_value = "Not Active"

[[record]]
compound_smiles = "O=S(=O)(Nc1cc(Sc2nnnn2-c2ccccc2)c(O)c2ccccc12)c1ccccc1"
recorded_value = "Not Active"

[[record]]
compound_smiles = "O=C1C=CC(=O)N1c1ccc(Cl)cc1"
recorded_value = "Not Active"

[[record]]
compound_smiles = "O=S1(=O)C=C(Sc2nnc(-c3ccncc3)o2)c2ccccc21"
recorded_value = "Not Active"

[[record]]
compound_smiles = "O=C1C=CC(=O)N1c1cc(Cl)cc(Cl)c1"
recorded_value = "Not Active"

[[record]]
compound_smiles = "O=S(=O)(Nc1cc(Cl)c(O)c2ccccc12)c1ccc(Br)cc1"
recorded_value = "Not Active"

[[record]]
compound_smiles = "O=C1C=CC(=O)N1c1cccc(F)c1"
recorded_value = "Not Active"


###

- Target Entity: Histone acetyltransferase RTT109 (Saccharomyces cerevisiae (strain ATCC 204508 / S288c) (Baker's yeast)) (UniProt Q07794)
- Sequence (whole entry): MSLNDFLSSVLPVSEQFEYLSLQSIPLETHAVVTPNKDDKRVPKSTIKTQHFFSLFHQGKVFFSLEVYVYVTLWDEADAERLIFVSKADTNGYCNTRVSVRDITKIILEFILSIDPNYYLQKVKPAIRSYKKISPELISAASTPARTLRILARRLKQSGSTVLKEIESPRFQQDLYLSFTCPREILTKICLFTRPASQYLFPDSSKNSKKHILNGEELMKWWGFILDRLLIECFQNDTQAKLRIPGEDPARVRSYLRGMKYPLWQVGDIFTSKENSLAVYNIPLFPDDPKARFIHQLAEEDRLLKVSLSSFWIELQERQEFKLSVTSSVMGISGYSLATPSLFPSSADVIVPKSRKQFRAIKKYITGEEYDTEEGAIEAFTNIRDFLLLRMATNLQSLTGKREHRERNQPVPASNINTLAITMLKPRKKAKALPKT
- Protocol Description: Inhibition of Vps75-stimulated recombinant Saccharomyces cerevisiae histone acetyltransferase Rtt109 assessed as H3K27 acetylated product at […] after 45 mins by Slot bolt inhibiton assay
The source made the active and inactive calls.
Classes used: Yes (active), No (inactive)

[[record]]
compound = "O=C1CC(Sc2nnc(-c3ccccc3O)o2)C(=O)N1c1ccccc1 (stereo unspecified)"
label_class = "Yes"

[[record]]
compound = "O=[N+]([O-])c1cc(Br)c2nsnc2c1Sc1ncnc2[nH]cnc12"
label_class = "Yes"

[[record]]
compound = "COc1ccc(-c2nnc(Sc3ccc([N+](=O)[O-])c4nonc34)o2)cc1"
label_class = "Yes"

[[record]]
compound = "Cc1ccc(-c2nnc(SC3CC(=O)N(c4ccc(Oc5ccccc5)cc4)C3=O)[nH]2)cc1 (stereo unspecified)"
label_class = "Yes"

[[record]]
compound = "Cn1c(Sc2ccc([N+](=O)[O-])c3nonc23)nnc1-c1ccccc1"
label_class = "Yes"

[[record]]
compound = "O=[N+]([O-])c1ccccc1-c1nnc(SC2=CS(=O)(=O)c3ccccc32)o1"
label_class = "Yes"

[[record]]
compound = "COc1ccc(N2C(=O)CC(Sc3n[nH]c(-c4ccccc4)n3)C2=O)cc1 (stereo unspecified)"
label_class = "Yes"

[[record]]
compound = "O=C1C=CC(=O)N1c1cccc(F)c1"
label_class = "Yes"

[[record]]
compound = "O=S(=O)(Nc1cc(Sc2cccc3cccnc23)c(O)c2ccccc12)c1ccccc1"
label_class = "Yes"

[[record]]
compound = "O=[N+]([O-])c1ccc(Sc2nnc(-c3ccccc3)o2)c2nonc12"
label_class = "Yes"

[[record]]
compound = "O=C1CC(Sc2nnc(-c3ccccc3)[nH]2)C(=O)N1c1ccc(Oc2ccccc2)cc1 (stereo unspecified)"
label_class = "Yes"

[[record]]
compound = "O=C(O)c1ccc(S(=O)(=O)Nc2cc(Br)c(O)c3ccccc23)cc1"
label_class = "Yes"

[[record]]
compound = "Cc1ccc(N2C(=O)CC(Sc3nnc(-c4ccccc4O)o3)C2=O)cc1 (stereo unspecified)"
label_class = "Yes"

[[record]]
compound = "Cn1c(CN2CCOCC2)nnc1Sc1ccc([N+](=O)[O-])c2nonc12"
label_class = "Yes"

[[record]]
compound = "Cc1ccc(-c2nc(N(c3ccccc3)c3ccccc3)s[n+]2CS(=O)(=O)c2ccccc2)cc1.[O-][Cl+3]([O-])([O-])[O-]"
label_class = "No"

[[record]]
compound = "Cc1cc(C)c(S(=O)(=O)Nc2cc(Br)c(O)c3ccccc23)c(C)c1"
label_class = "Yes"

[[record]]
compound = "O=C1C=CC(=O)N1c1ccc(Oc2ccccc2)cc1"
label_class = "Yes"

[[record]]
compound = "O=C1C=CC(=O)N1c1cc(Cl)cc(Cl)c1"
label_class = "Yes"

[[record]]
compound = "O=C1CC(Sc2nnnn2-c2ccccc2)C(=O)N1c1ccc([N+](=O)[O-])cc1 (stereo unspecified)"
label_class = "Yes"

[[record]]
compound = "O=S1(=O)C=C(Sc2nnnn2-c2ccccc2)c2ccccc21"
label_class = "Yes"

[[record]]
compound = "c1ccc(C[n+]2sc(Nc3ccccc3)nc2-c2ccccc2)cc1"
label_class = "Yes"


###

- Target Entity: Histone acetyltransferase RTT109 (Saccharomyces cerevisiae (strain ATCC 204508 / S288c) (Baker's yeast)) (UniProt Q07794)
- Protocol Description: Inhibition of Vps75-stimulated recombinant Saccharomyces cerevisiae histone acetyltransferase Rtt109 assessed as H3K56 acetylated product at […] after 45 mins by Slot bolt inhibiton assay
Activity calls are given as the source filed them.
Outcomes: active, inactive

[[record]]
compound_smiles = "Cc1ccc(S(=O)(=O)C2=CS(=O)(=O)c3ccccc32)cc1"
label_class = "active"

[[record]]
compound_smiles = "O=S(=O)(Nc1cc(Sc2ncn[nH]2)c(O)c2ccccc12)c1ccc2ccccc2c1"
label_class = "active"

[[record]]
compound_smiles = "O=S1(=O)C=C(Sc2nnnn2-c2ccccc2)c2ccccc21"
label_class = "active"

[[record]]
compound_smiles = "c1ccc(C[n+]2sc(Nc3ccccc3)nc2-c2ccccc2)cc1"
label_class = "active"

[[record]]
compound_smiles = "O=C(O)c1ccc(S(=O)(=O)Nc2cc(Br)c(O)c3ccccc23)cc1"
label_class = "active"

[[record]]
compound_smiles = "O=S(=O)(Nc1cc(Sc2nc[nH]n2)c(O)c2ccccc12)c1ccccc1"
label_class = "active"

[[record]]
compound_smiles = "O=S(=O)(Nc1cc(Sc2nc[nH]n2)c(O)c2ccccc12)c1ccc(Cl)cc1"
label_class = "inactive"

[[record]]
compound_smiles = "[O-][Cl+3]([O-])([O-])[O-].c1ccc(-c2nc(N(c3ccccc3)c3ccccc3)s[n+]2-c2ccccc2)cc1"
label_class = "active"

